Reported activation values for the following molecules.
Biological target: Cellular tumor antigen p53 (Homo sapiens)
Test: Primary qHTS for small molecule compounds that upregulate eGFP-tagged delta133p53alpha (in N-terminal) cells. (AID 2060322);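 further: cells pre-induced with doxycycline then dosed without doxycycline; series mostly up to about 56 µM; 0% = DMSO vehicle and 100% = reference activator; nearly all actives have a fitted effect of over 75% in size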
Conditions: NCI-H358 eGFP-delta133p53alpha fluorescence, 24 h; active compounds read high
Results filed as inconclusive are left out.
# output: bare number, implied unit %

Study these solved cases before continuing.
# molecule, scale.unit, activation
measured = [
    ("C=C1C(OC(C)=O)CCC2(C)CCC(C(C)(C)O)CC12 (configuration not stated)", "%", -3.05),
    ("CCCC(CCC)C(=O)OC1CC2CCC(C1)[N+]2(C)C (configuration not stated)", "%", -17.7),
    ("CCCCCCCCCCCCCCNCCO", "%", -16.7),
    ("CC(=O)NC1C(OC(C)(C)C2CCC3(C)C=C(C4CCC5C4(C)CC(O)C4OC(C(C)(C)O)CCC45C)CCC3O2)OC(CO)C(O)C1O (configuration not stated)", "%", -3.05),
]

Query string: Quick check: activation on Cellular tumor antigen p53 (Homo sapiens), item `CON=C(C(=O)N[C@@H]1C(=O)N2C(C(=O)O)=C(CSC(=O)c3ccco3)CS[C@H]12)c1csc(N)n1` ?
Result string: 4.83

Query string: Quick check: activation on Cellular tumor antigen p53 (Homo sapiens), item CC1(C)CC[C@]23CO[C@@]4(CCC5[C@@]6(C)CC[C@H](O[C@@H]7OC[C@H](O[C@@H]8O[C@H](CO)[C@@H](O)[C@H](O)[C@H]8O[C@@H]8OC[C@@H](O)[C@H](O)[C@H]8O)[C@H](O)[C@H]7O)[C@@](C)(CO)C6CC[C@@]5(C)[C@]4(C)CC2=O)[C@@H]3C1 (some centres not stated) ?
Result string: 18.3

Query string: Quick check: activation on Cellular tumor antigen p53 (Homo sapiens), item `O=C(Cn1c2ccccc2c2nc3n(c(=O)c21)CCS3)N1CCCC1` ?
Result string: 5.67

Query string: Quick check: activation on Cellular tumor antigen p53 (Homo sapiens), item CO/N=C(\C(=O)N[C@@H]1C(=O)N2C(C(=O)O)=C(CSc3nc(=O)c(O)nn3C)CSC12)c1csc(N)n1 (some centres not stated) ?
Result string: 4.05

Query string: Quick check: activation on Cellular tumor antigen p53 (Homo sapiens), item `C=CCN1CCc2c(cc(O)c(O)c2Br)[C@@H](c2ccccc2)C1` ?
Result string: -46.3

Query string: Quick check: activation on Cellular tumor antigen p53 (Homo sapiens), item `O=[N+]([O-])c1cccc(S(=O)(=O)NCCNS(=O)(=O)c2cccc([N+](=O)[O-])c2)c1` ?
Result string: 24.3

Query string: Quick check: activation on Cellular tumor antigen p53 (Homo sapiens), item `COc1nc2sc(C(=O)NC3CC3)c(N)c2c(C)c1Cl` ?
Result string: -6.33

Query string: Quick check: activation on Cellular tumor antigen p53 (Homo sapiens), item `CCCCCCN(CCCCCC)C(=O)Cc1c(-c2ccc(F)cc2)[nH]c2ccccc12` ?
Result string: -10.8

Query string: Quick check: activation on Cellular tumor antigen p53 (Homo sapiens), item `CCCCOC(=O)NS(=O)(=O)c1sc(CC(C)C)cc1-c1ccc(Cn2c(CC)nc3c(C)cc(C)nc32)cc1` ?
Result string: -46.4

Query string: Quick check: activation on Cellular tumor antigen p53 (Homo sapiens), item `C=CCCN1CCC2(CC1)CN(C(=O)c1c(F)cccc1F)c1ccc(Cl)cc12` ?
Result string: 8.11
